inhibition reference
Molecular target: Serine/threonine-protein kinase Chk2 (Homo sapiens)
Test: Inhibition of CHK2 at 10 uM

# SUBSTANCE SMILES, inhibition / %
records = [
    ("Cc1cc(C2=N/C(=C\\c3cccnc3)C(=O)O2)ccc1Br", 19),
    ("O=C1OC(c2ccc(Cl)cc2)=N/C1=C\\c1cccnc1", 24),
    ("O=C1OC(c2ccc(F)c(F)c2)=N/C1=C\\c1cccnc1", 7),
    ("O=C1OC(/C=C/c2ccccc2)=NC/1=C\\c1cccnc1", 17),
    ("O=C1OC(c2ccccc2)=N/C1=C\\c1cccnc1", 4),
]

====

Target: RAC-alpha serine/threonine-protein kinase (Homo sapiens) (UniProt P31749)
Sequence (P31749 whole entry): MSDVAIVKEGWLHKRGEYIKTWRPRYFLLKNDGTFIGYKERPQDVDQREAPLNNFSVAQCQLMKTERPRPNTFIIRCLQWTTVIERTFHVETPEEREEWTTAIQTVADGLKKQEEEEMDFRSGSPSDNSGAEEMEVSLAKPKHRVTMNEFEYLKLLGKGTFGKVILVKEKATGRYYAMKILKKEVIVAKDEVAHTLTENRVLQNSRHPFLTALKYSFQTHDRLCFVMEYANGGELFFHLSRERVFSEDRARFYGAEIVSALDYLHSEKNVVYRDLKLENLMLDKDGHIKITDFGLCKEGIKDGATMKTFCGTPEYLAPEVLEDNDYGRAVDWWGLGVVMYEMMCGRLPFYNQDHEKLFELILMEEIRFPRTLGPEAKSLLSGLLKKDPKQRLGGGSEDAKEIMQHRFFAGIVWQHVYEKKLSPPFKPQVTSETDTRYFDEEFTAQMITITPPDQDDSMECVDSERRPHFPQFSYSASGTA
Assay: Inhibition of AKT1 at 10 uM
inhibition reference
MEASUREMENT NAME: inhibition (%)

# SUBSTANCE SMILES, REPORTED
measured = [
    ("O=C1OC(c2ccc(F)c(F)c2)=N/C1=C\\c1cccnc1", 12),
    ("O=C1OC(c2ccc(Cl)cc2)=N/C1=C\\c1cccnc1", 13),
    ("O=C1OC(c2ccccc2)=N/C1=C\\c1cccnc1", 12),
    ("O=C1OC(/C=C/c2ccccc2)=NC/1=C\\c1cccnc1", 15),
    ("Cc1cc(C2=N/C(=C\\c3cccnc3)C(=O)O2)ccc1Br", 12),
    ("Cc1cccc(C2=N/C(=C\\c3cccnc3)C(=O)O2)c1", 5),
]

====

Biological target: UniProtKB P06239
Sequence (P06239 2-509 limits assumed): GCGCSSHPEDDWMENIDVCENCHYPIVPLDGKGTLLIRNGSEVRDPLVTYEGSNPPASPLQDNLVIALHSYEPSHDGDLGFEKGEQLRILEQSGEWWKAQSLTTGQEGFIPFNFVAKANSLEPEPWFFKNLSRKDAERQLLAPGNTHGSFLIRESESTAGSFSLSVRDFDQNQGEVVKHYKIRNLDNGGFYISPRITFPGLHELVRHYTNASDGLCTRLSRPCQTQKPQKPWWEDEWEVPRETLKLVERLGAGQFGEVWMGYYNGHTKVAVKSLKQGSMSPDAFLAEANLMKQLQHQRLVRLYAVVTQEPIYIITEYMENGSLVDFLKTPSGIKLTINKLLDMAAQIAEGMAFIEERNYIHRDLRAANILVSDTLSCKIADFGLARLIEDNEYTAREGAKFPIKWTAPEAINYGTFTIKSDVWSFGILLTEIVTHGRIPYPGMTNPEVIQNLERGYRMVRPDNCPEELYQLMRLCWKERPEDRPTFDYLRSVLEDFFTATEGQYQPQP
Assay: Inhibition of LCK at 10 uM
inhibition reference

# SUBSTANCE SMILES, inhibition [%]
rows = [
    ("O=C1OC(c2ccc(F)c(F)c2)=N/C1=C\\c1cccnc1", 3),
    ("O=C1OC(/C=C/c2ccccc2)=NC/1=C\\c1cccnc1", 8),
    ("O=C1OC(c2ccccc2)=N/C1=C\\c1cccnc1", 9),
    ("O=C1OC(c2ccc(Cl)cc2)=N/C1=C\\c1cccnc1", 8),
]

====

Molecular target: Glycogen synthase kinase-3 beta (Homo sapiens) (UniProt P49841)
Sequence (P49841 whole entry, looked up): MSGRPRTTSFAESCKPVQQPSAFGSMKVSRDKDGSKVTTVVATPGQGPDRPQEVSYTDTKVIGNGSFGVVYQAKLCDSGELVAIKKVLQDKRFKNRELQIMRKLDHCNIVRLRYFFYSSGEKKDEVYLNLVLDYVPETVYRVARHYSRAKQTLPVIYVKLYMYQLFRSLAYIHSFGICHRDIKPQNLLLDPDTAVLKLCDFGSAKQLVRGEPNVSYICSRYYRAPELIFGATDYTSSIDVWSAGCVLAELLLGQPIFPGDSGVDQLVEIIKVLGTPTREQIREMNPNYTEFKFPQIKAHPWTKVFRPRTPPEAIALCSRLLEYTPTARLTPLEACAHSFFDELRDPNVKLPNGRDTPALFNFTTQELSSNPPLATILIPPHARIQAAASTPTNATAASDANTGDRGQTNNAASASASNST
Assay: Inhibition of GSK3-beta at 10 uM
inhibition reference

# SUBSTANCE SMILES, UNIT STRING, inhibition
records = [
    ("O=C1OC(c2ccccc2)=N/C1=C\\c1cccnc1", "%", 9),
    ("O=C1OC(/C=C/c2ccccc2)=NC/1=C\\c1cccnc1", "%", 3),
    ("O=C1OC(c2ccc(F)c(F)c2)=N/C1=C\\c1cccnc1", "%", 0),
    ("O=C1OC(c2ccc(Cl)cc2)=N/C1=C\\c1cccnc1", "%", 7),
]

====

Target: Ribosomal protein S6 kinase alpha-1 (Homo sapiens)
Test: Inhibition of RSK1 at 10 uM
inhibition reference

# SUBSTANCE SMILES, ASSAYED SYSTEM, inhibition, %
data = [
    ("Cc1cc(C2=N/C(=C\\c3cccnc3)C(=O)O2)ccc1Br", "Ribosomal protein S6 kinase alpha-1 (Homo sapiens)", 13),
    ("O=C1OC(c2ccccc2)=N/C1=C\\c1cccnc1", "Ribosomal protein S6 kinase alpha-1 (Homo sapiens)", 5),
    ("Cc1cccc(C2=N/C(=C\\c3cccnc3)C(=O)O2)c1", "Ribosomal protein S6 kinase alpha-1 (Homo sapiens)", 15),
    ("O=C1OC(c2ccc(Cl)cc2)=N/C1=C\\c1cccnc1", "Ribosomal protein S6 kinase alpha-1 (Homo sapiens)", 10),
    ("O=C1OC(/C=C/c2ccccc2)=NC/1=C\\c1cccnc1", "Ribosomal protein S6 kinase alpha-1 (Homo sapiens)", 4),
]
